Where these numbers come from: the supplement of paper PMC10307832

Record form. Attribute: relative viability. Fill in for each entry.
- Test system: LOU-NH91
- EXPERIMENT NOTES: relative viability (nuclei count vs DMSO), 5 days (fraction); higher = more cells survive
- TEST SETTINGS: first compound 0.03162 µM
Answer with a number only.

// O=c1cc(N2CCOCC2)oc2c(-c3cccc4c3sc3ccccc34)cccc12 + O=C(CCCCCCC(=O)Nc1ccccc1)NO [Vorinostat] (partner 1 µM) : relative viability value = 0.881

// O=c1cc(N2CCOCC2)oc2c(-c3cccc4c3sc3ccccc34)cccc12 + Nc1nc2[nH]cc(CCc3ccc(C(=O)N[C@@H](CCC(=O)O)C(=O)O)cc3)c2c(=O)[nH]1 [Pemetrexed] (partner 0.2 µM) : relative viability value = 0.384

// O=c1cc(N2CCOCC2)oc2c(-c3cccc4c3sc3ccccc34)cccc12 + N=C(N)NC(=N)NCCc1ccccc1 [Phenformin] (partner 250 µM) : relative viability value = 0.688

// O=c1cc(N2CCOCC2)oc2c(-c3cccc4c3sc3ccccc34)cccc12 + COc1cccc2cc(-c3nc([C@H]4CC[C@H](C(=O)O)CC4)n4ncnc(N)c34)[nH]c12 [OSI-027] (partner 0.5 µM) : relative viability value = 0.754

// CCN(CC)CCCCNc1ncc2cc(-c3cc(OC)cc(OC)c3)c(NC(=O)NC(C)(C)C)nc2n1 + Cc1nc(Nc2ncc(C(=O)Nc3c(C)cccc3Cl)s2)cc(N2CCN(CCO)CC2)n1 [Dasatinib] (partner 0.075 µM) : relative viability value = 0.521

* * *

- Tested on: COR-L23
- EXPERIMENT NOTES: relative viability (nuclei count vs DMSO), 5 days (fraction); higher = more cells survive
- TEST SETTINGS: first compound 0.3162 µM
METRIC NAME: relative viability
Answer with a number only.

// O=c1cc(N2CCOCC2)oc2c(-c3cccc4c3sc3ccccc34)cccc12 + CC(C)C[C@H](NC(=O)[C@H](Cc1ccccc1)NC(=O)c1cnccn1)B(O)O [Bortezomib] (partner 0.002 µM) : relative viability value = 0.904

// O=c1cc(N2CCOCC2)oc2c(-c3cccc4c3sc3ccccc34)cccc12 + Nc1ncn([C@H]2C[C@H](O)[C@@H](CO)O2)c(=O)n1 [Decitabine] (partner 2 µM) : relative viability value = 0.467

// O=c1cc(N2CCOCC2)oc2c(-c3cccc4c3sc3ccccc34)cccc12 + Cc1cc(Nc2cc(N3CCN(C)CC3)nc(Sc3ccc(NC(=O)C4CC4)cc3)n2)n[nH]1 [Tozasertib] (partner 0.1 µM) : relative viability value = 0.234

// CCN(CC)CCCCNc1ncc2cc(-c3cc(OC)cc(OC)c3)c(NC(=O)NC(C)(C)C)nc2n1 + Cc1nc(NC(=O)N2CCC[C@H]2C(N)=O)sc1-c1ccnc(C(C)(C)C(F)(F)F)c1 [Alpelisib] (partner 2 µM) : relative viability value = 0.787

// CCN(CC)CCCCNc1ncc2cc(-c3cc(OC)cc(OC)c3)c(NC(=O)NC(C)(C)C)nc2n1 + Cc1cc(Nc2cc(N3CCN(C)CC3)nc(Sc3ccc(NC(=O)C4CC4)cc3)n2)n[nH]1 [Tozasertib] (partner 0.1 µM) : relative viability value = 0.206

// O=c1cc(N2CCOCC2)oc2c(-c3cccc4c3sc3ccccc34)cccc12 + N=C(N)NC(=N)NCCc1ccccc1 [Phenformin] (partner 250 µM) : relative viability value = 0.411
